- tgt: T1, human complement C3b protein (human, UniProt P01024 23-667; P01024 749-1663)
- T1 construct: Purified plasma C3b (Complement Technology, Quidel); Depending on the assay it was captured by an anti-C3d antibody, coated, biotinylated or coupled to beads; also called human C3b; huC3b
- experiment-notes: AlphaScreen bead proximity, C3b-Acceptor beads pre-incubated with antibody, then biotinylated fH and SA-Donor beads; blocked ligand: fH [C]
Hi there, I'd appreciate the recorded IC50 (read off the curve) for every entry that follows.

The recorded IC50 (read off the curve) for entry MOR09610 IgG (antibody, V domains shown, Germlined human IgG1 with leucines 234 and 235 changed to alanines, kappa; also called antibody 9610) VH: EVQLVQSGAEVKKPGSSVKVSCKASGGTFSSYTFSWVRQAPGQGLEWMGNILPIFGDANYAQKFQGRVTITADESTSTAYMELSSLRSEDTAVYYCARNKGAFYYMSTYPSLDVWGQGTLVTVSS VL: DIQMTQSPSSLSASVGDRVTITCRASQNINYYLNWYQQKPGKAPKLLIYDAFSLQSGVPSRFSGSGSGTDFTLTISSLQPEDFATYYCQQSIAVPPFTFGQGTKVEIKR equals ~200 pM

The recorded IC50 (read off the curve) for entry MOR09612 IgG (antibody, V domains shown, Germlined human IgG1 with leucines 234 and 235 changed to alanines, kappa; also called antibody 9612) VH: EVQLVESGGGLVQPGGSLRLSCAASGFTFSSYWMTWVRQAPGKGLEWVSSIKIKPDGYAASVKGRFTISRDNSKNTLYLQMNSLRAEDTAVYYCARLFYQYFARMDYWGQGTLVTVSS VL: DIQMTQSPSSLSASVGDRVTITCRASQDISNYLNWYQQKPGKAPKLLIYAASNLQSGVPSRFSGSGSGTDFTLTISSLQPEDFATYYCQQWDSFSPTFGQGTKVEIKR equals ~40 pM

The recorded IC50 (read off the curve) for entry MOR09556 IgG (antibody, V domains shown, Germlined human IgG1 with leucines 234 and 235 changed to alanines, kappa; also called antibody 9556) VH: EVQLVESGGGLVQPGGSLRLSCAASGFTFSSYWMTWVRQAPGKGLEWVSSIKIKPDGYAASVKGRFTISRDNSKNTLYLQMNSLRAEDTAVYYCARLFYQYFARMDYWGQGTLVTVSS VL: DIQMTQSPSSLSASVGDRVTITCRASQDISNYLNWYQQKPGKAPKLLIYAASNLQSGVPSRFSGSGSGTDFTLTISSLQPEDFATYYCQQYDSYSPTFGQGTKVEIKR equals ~40 pM
